Molecular target: T1, GIP receptor (UniProt P48546 22-466, limits assumed)
T1 sequence (looked up): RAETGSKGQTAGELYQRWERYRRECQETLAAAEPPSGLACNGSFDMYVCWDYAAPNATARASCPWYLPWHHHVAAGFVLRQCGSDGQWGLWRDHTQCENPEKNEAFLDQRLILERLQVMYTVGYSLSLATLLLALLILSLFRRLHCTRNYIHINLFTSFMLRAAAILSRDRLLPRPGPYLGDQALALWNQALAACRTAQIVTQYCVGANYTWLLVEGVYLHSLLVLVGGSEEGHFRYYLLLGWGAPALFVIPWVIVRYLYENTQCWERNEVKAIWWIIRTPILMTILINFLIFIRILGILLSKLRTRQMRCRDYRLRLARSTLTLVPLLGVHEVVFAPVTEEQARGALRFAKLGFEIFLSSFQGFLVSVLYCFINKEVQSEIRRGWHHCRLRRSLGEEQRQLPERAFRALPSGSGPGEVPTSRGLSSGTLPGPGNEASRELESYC
Test: cell-based or functional assay
*1 amine or outer side, *2 acyl side, *3 side chain or, on linkers, in order; H or OH if unused. Where no end group is shown, it is not given here. Side-chain parts run from the residue outwards. [ ]: non-standard residue; d: D form. The star is where a group is joined. γGlu = O=C(O)[C@H](CCC(=O)[*:2])N[*:1]; Palmitoyl = CCCCCCCCCCCCCCCC(=O)*; Aib = CC(C)(N)C(=O)O
Measured EC50 (cAMP reporter), listed per entry for reference.
Only the number, expressed in nM, is required.

// known answers, use as guide
{"binder": "H[Aib]QGTFTSDK([γGlu-Palmitoyl])SKYLDERAAQDFVQWLLDGGPSSGAPPPS-NH2 [Analog No. 30: Aib2, K10acyl, E16, A18, L27, D28, G29 + CEX (SEQ ID NO: 28)]", "measured.attribute": "EC50 (cAMP reporter)", "readout.number": 0.004}
{"binder": "H[Aib]QGTFTSDYSKYLDERAAQDFVQWLLDAGPSSGAPPPSK([γGlu-γGlu-Palmitoyl])G-NH2 [peptide of SEQ ID NO: 204]", "measured.attribute": "EC50 (cAMP reporter)", "readout.number": 0.069}
{"binder": "H[Aib]QGTFTSDYSKYLDERAAQDFVQWLLDGGPSSGAPPPSK([γGlu-γGlu-Palmitoyl])G-NH2 (not fully specified) [peptide of SEQ ID NO: 89]", "measured.attribute": "EC50 (cAMP reporter)", "readout.number": 0.028}

# evaluate next
Short answer for H[Aib]QGTFTSDYSKYLDERAAQDFVQWLLAGGPSSGAPPPSK([γGlu-γGlu-Palmitoyl])G-NH2 [peptide of SEQ ID NO: 203] : EC50 (cAMP reporter) was 0.007
